Target: T1, Pex13, P80667
T1 sequence (P80667 295-386, looked up): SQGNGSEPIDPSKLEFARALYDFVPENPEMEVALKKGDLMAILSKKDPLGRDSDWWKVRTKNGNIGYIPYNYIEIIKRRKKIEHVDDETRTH
Assay: SPOT array
Conditions: median of control spots 1341
test.readout: SPOT intensity

{"binder": "QTREPNEPPPPSPAM", "reported": 7}
{"binder": "KTRLRPAFIQQLWSS", "reported": 7}
{"binder": "NHSRSLFSLPGNQQS", "reported": 36}

(1) TIRRRAPLSLLESHT
(2) RPPRPPPKPLHLRTE
Of 1 and 2 , which shows the smaller SPOT intensity value? Selection: enter the item's label. 1
(1: 3, 2: 479)
